Target: human PXR-LBD (Homo sapiens)
Construct: GST-hPXR-LBD (10 nM) was incubated with different concentrations; purchased
Sequence (O75469 146-433 limits assumed): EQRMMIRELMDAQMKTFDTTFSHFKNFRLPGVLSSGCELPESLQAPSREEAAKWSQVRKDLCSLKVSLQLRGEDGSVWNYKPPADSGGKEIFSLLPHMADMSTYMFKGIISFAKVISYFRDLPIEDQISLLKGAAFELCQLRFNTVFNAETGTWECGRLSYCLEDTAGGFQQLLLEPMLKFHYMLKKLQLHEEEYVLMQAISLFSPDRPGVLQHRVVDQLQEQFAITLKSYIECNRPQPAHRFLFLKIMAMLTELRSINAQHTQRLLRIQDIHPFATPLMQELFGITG
Assay: LanthaScreen TR-FRET PXR competitive binding assay
Conditions: GST-hPXR-LBD 10 nM, Fluormone PXR ligand 40 nM
metric: Ki (µM)

molecule	test-system	observed-result
ClC1=C(Cl)C2(Cl)C3C(Cl)C(Cl)C(Cl)C3C1(Cl)C2(Cl)Cl (stereo not drawn) [TNC, trans-nonachlor]	human PXR-LBD (Homo sapiens)	3.01
